System: Recombinant wild type HIV strain recIIIB
Assay: Antiviral MT4/MTT assay with reference virus recIIIB
Type: cell-based, HIV-1
Details: Human immunodeficiency virus 1, Table 8, reference run of Example 12; read-out: Anti-HIV-1 activity IC50 (μM) recIIIB ref (2)
IC50: recorded values
Express the result in µM but write the number alone.

{"molecule": "Cc1cn([C@H]2C[C@H](N=[N+]=[N-])[C@@H](CO)O2)c(=O)[nH]c1=O [AZT, zidovudine]", "study_target": "Recombinant wild type HIV strain recIIIB", "unit_tag": "µM", "IC50": 0.041}
{"molecule": "CC(C)(C)NC(=O)[C@@H]1C[C@@H]2CCCC[C@@H]2CN1C[C@@H](O)[C@H](Cc1ccccc1)NC(=O)[C@H](CC(N)=O)NC(=O)c1ccc2ccccc2n1 [saquinavir]", "study_target": "Recombinant wild type HIV strain recIIIB", "unit_tag": "µM", "IC50": 0.006}
{"molecule": "CC(C)(C)NC(=O)[C@@H]1CN(Cc2cccnc2)CCN1C[C@@H](O)C[C@@H](Cc1ccccc1)C(=O)N[C@H]1c2ccccc2C[C@H]1O [indinavir]", "study_target": "Recombinant wild type HIV strain recIIIB", "unit_tag": "µM", "IC50": 0.016}

Next molecule, please.
Recorded IC50 for CC(C)c1nc(CN(C)C(=O)N[C@H](C(=O)N[C@@H](Cc2ccccc2)C[C@H](O)[C@H](Cc2ccccc2)NC(=O)OCc2cncs2)C(C)C)cs1 [ritonavir] with Recombinant wild type HIV strain recIIIB, please?
0.033

###

Tested on: Recombinant wild type HIV strain recIIIB
Test: Antiviral MT4/MTT assay with reference virus recIIIB
Assay type: cell-based, HIV-1
Details: Human immunodeficiency virus 1, read-out: Anti-HIV-1 activity IC50 (μM) recIIIB ref (2), Table 7, reference run of Example 11
readout_type: IC50 (µM)
Express the result in µM but write the number alone.

What does the record list as IC50 for Nc1ccn([C@@H]2CS[C@H](CO)O2)c(=O)n1 [3TC, lamivudine] ?
5.18

###

Tested on: recombinant virus from patient viral RNA (Example 7, drug-naive patient)
Test: Recombinant virus assay (MT4/MTT), drug-naive patient of Example 7
Assay type: cell-based, HIV-1
Conditions: Human immunodeficiency virus 1; Table 3, Example 7 patient virus, MT4 cells; read-out: Anti-HIV-1 activity IC50 (μM) Exp. 1
readout_type: log10 IC50 (log10 of the value in µM)
For clarity, the numbers are log10 values of IC50 expressed in µM.

Here's what some known entries look like.
{"compound": "Cc1cn([C@H]2C[C@H](N=[N+]=[N-])[C@@H](CO)O2)c(=O)[nH]c1=O", "log10 IC50": -1.28}
{"compound": "CC(C)=CCN1Cc2c(Cl)ccc3[nH]c(=S)n(c23)C[C@@H]1C", "log10 IC50": -1.38}
{"compound": "Nc1ccn([C@@H]2CS[C@H](CO)O2)c(=O)n1", "log10 IC50": 0.34}
{"compound": "O=c1[nH]cnc2c1ncn2[C@H]1CC[C@@H](CO)O1", "log10 IC50": -0.32}

What does the record list as log10 IC50 for Nc1ccn([C@H]2CC[C@@H](CO)O2)c(=O)n1 ?
0.02

Try this compound too: CC(=O)c1ccc(C)cc1NC(C(N)=O)c1c(Cl)cccc1Cl (stereo not shown) [loviride]
-1.46

Try this compound too: Cc1cn([C@H]2C=C[C@@H](CO)O2)c(=O)[nH]c1=O
0.06
